Assay: Cytotoxicity against Swiss mouse peritoneal macrophages after 72 hrs by Alamar blue assay
Type: cell-based
Conditions: Peritoneal macrophage cell
ENDPOINT: pIC50
By convention, pIC50 is the negative base-10 log of a molar concentration.

Give the measured pIC50 of O=C(O[C@@H]1Cc2c(O)cc(O)cc2O[C@@H]1c1cc(O)c(O)c(O)c1)c1cc(O)c(O)c(O)c1 [EPIGALOCATECHIN GALLATE] .
3.36
